Dear all, this message contains IC50 results, target or system Voltage-gated inwardly rectifying potassium channel KCNH2 (Homo sapiens).
PROPERTY MEASURED: IC50

INSERT INTO assay_data (chem_smiles, endpoint_result) VALUES
  ('CCC(=O)NCCc1ccccc1-c1ccc([C@H]2CNCC[C@@H]2c2ccn(C)c(=O)c2)c(Cl)c1', '2.8 µM'),
  ('COC[C@H](C)COCc1ccc([C@@]2(O)CCNC[C@@H]2c2ccc(-c3ccccc3CCNC(C)=O)cc2C)cc1', '9 µM'),
  ('CC(=O)NCCc1ccccc1-c1ccc([C@H]2CNCC[C@@]23OC(=O)c2cc(F)c(F)cc23)c(C)c1', '12.9 µM'),
  ('CC(=O)NCCc1ccccc1-c1ccc([C@H]2CNCC[C@@H]2c2ccn(C)c(=O)c2)c(Cl)c1', '5.8 µM'),
  ('COCC(F)(F)COCc1ccc([C@@]2(O)CCNC[C@@H]2c2ccc(-c3ccccc3CCNC(C)=O)cc2C)cc1', '9.8 µM'),
  ('CC(=O)NCCc1ccccc1-c1ccc([C@H]2CNCC[C@]2(O)c2ccc(F)c(F)c2)c(C)c1', '4.2 µM'),
  ('CC(=O)NCCc1ccccc1-c1ccc([C@H]2CNCC[C@@]23OCc2cc(F)c(F)cc23)c(C)c1', '5.1 µM'),
  ('CCOC(=O)NCCc1ccccc1-c1ccc([C@H]2CNCC[C@@H]2c2ccn(C)c(=O)c2)c(Cl)c1', '3.2 µM');

Attribution: ChEMBL document CHEMBL1955789
